Target: bovine thrombin (Bos taurus)
Construct: purchased Mochida Co., Ltd
Test: Antithrombin activity: coagulation inhibition of rat plasma
Assay type: biochemical
recorded.endpoint: IC50 (µM)

> print(dat)
                                item.smiles                           tgt  recorded.endpoint  value.observed
1  N=C(N)c1ccc(CNC(=O)[C@@H]2CCCN2C(=O)CCCc2ccccc2)cc1  bovine thrombin (Bos taurus)               IC50            0.59
2  CC(C)(C)C[C@@H](NC(=O)OC(C)(C)C)C(=O)N1CCC[C@H]1C(=O)NC[C@H]1CC[C@H](C(=N)N)CC1  bovine thrombin (Bos taurus)               IC50           0.058

(I) CSCC[C@@H](NS(C)(=O)=O)C(=O)N1CCC[C@H]1C(=O)NCc1ccc(C(=N)N)cc1
(II) COC(=O)c1ccc(CC[C@@H](NS(C)(=O)=O)C(=O)N2CCC[C@H]2C(=O)NCc2ccc(C(=N)N)cc2)cc1
*Q* Identify the item whose IC50 is the smaller number: I or II Please identify the chosen entry by its label.
*A* I

###

Biological target: bovine trypsin (Bos taurus)
Sequence (P00760 24-246): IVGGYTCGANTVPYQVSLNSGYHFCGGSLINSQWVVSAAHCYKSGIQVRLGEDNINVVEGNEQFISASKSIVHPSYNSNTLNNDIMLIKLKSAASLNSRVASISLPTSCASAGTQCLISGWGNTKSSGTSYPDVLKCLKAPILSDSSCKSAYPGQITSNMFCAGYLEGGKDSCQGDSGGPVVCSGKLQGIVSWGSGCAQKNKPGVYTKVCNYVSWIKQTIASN
pIC50: −log10 of the molar value.
recorded.endpoint: pIC50

Reference set, count: 2
> print(dat)
                                   molecule  recorded.endpoint  value.observed
1  CC(C)OC(=O)N[C@H](CC(C)(C)C)C(=O)N1CCC[C@H]1C(=O)NC[C@H]1CC[C@H](C(=N)N)CC1 [compound 17]              pIC50            5.49
2  CS(=O)(=O)N[C@@H](C(=O)N1CCC[C@H]1C(=O)NC[C@H]1CC[C@H](N)CC1)C1CCCCC1 [compound 53]              pIC50            5.85

(P) CCOC(=O)N[C@H](CC(C)(C)C)C(=O)N1CCC[C@H]1C(=O)NC[C@H]1CC[C@H](C(=N)N)CC1 [compound 15]
(Q) CS(=O)(=O)N[C@H](Cc1ccccc1)C(=O)N1CCC[C@H]1C(=O)NC[C@H]1CC[C@H](NC(=N)N)CC1 [compound 67]
*Q* Higher pIC50: P or Q ? Please identify the chosen entry by its label.
*A* P
(P: 5.66, Q: 4.70)

###

Biological target: bovine thrombin (Bos taurus, UniProt P00735)
Construct: purchased Mochida Co., Ltd
Assay: Antithrombin activity: coagulation inhibition of rat plasma
Assay type: biochemical
pIC50: −log10 of the molar value.
recorded.endpoint: pIC50

> print(dat)
                                item.smiles  value.observed
1  N[C@H]1CC[C@H](CNC(=O)[C@@H]2CCCN2C(=O)[C@H](CCC(=O)O)NS(=O)(=O)c2ccccc2)CC1            6.64
2  CS(=O)(=O)N[C@H](Cc1ccccc1)C(=O)N1CCC[C@H]1C(=O)NC[C@H]1CC[C@H](N)CC1            7.35
3  CCCC[C@@H](NS(C)(=O)=O)C(=O)N1CCC[C@H]1C(=O)NCc1ccc(C(=N)N)cc1            7.52
4  CS(=O)(=O)N[C@H](Cc1ccccc1)C(=O)N1CCC[C@H]1C(=O)NC[C@H]1CC[C@H](NC(=N)N)CC1            7.09
5  CS(=O)(=O)N[C@@H](C(=O)N1CCC[C@H]1C(=O)NCc1ccc(C(=N)N)cc1)C1CCCCC1            7.34

(1) CCCCC[C@@H](NS(=O)(=O)CC(=O)O)C(=O)N1CCC[C@H]1C(=O)NCc1ccc(C(=N)N)cc1
(2) CCOC(=O)N[C@H](CC(C)(C)C)C(=O)N1CCC[C@H]1C(=O)NC[C@H]1CC[C@H](C(=N)N)CC1
(3) CS(=O)(=O)N[C@H](COc1ccccc1C(=O)OCc1ccccc1)C(=O)N1CCC[C@H]1C(=O)NCc1ccc(C(=N)N)cc1
*Q* Would you mind ranking these molecules by ascending pIC50? Please, when replying, give the labels in the order that was requested.
*A* 3, 1, 2
(3: 6.77, 1: 7.08, 2: 7.42)

(a) N[C@H]1CC[C@H](CNC(=O)[C@@H]2CCCN2C(=O)[C@H](O)c2ccccc2)CC1
(b) CC(C)(C)C[C@@H](NS(C)(=O)=O)C(=O)N1CCC[C@H]1C(=O)NCc1ccc(C(=N)N)cc1
*Q* Higher pIC50: a or b ? Please identify the chosen entry by its label.
*A* b
(b: 7.52, a: 7.06)

###

Biological target: bovine thrombin (Bos taurus, UniProt P00735)
Construct: purchased Mochida Co., Ltd
Experiment: Antithrombin activity: hydrolysis inhibition of synthetic substrate (S-2238)
Format: biochemical
pIC50: −log10 of the molar value.
recorded.endpoint: pIC50

Reference set, count: 2
> print(dat)
                                item.smiles                                       tgt  value.observed
1  CCOC(=O)N[C@H](CC(C)(C)C)C(=O)N1CCC[C@H]1C(=O)NC[C@H]1CC[C@H](C(=N)N)CC1  bovine thrombin (Bos taurus, UniProt P00735)            7.96
2  CCOC(=O)N[C@H](CC1CCCCC1)C(=O)N1CCC[C@H]1C(=O)NC[C@H]1CC[C@H](C(=N)N)CC1  bovine thrombin (Bos taurus, UniProt P00735)            7.68

(I) CS(=O)(=O)N[C@@H](C(=O)N1CCC[C@H]1C(=O)NC[C@H]1CC[C@H](N)CC1)C1CCCCC1
(II) CCOC(=O)N[C@H](CC(CC)CC)C(=O)N1CCC[C@H]1C(=O)NC[C@H]1CC[C@H](C(=N)N)CC1
*Q* Identify the item whose pIC50 is the smaller number: I or II Please identify the chosen entry by its label.
*A* I

###

Molecular target: bovine thrombin (Bos taurus, UniProt P00735)
Construct: purchased Mochida Co., Ltd
Test: Antithrombin activity: hydrolysis inhibition of synthetic substrate (S-2238)
Format: biochemical
pIC50: −log10 of the molar value.
recorded.endpoint: pIC50

Reference set, count: 3
> print(dat)
                                item.smiles  value.observed
1  CS(=O)(=O)N[C@H](Cc1ccccc1)C(=O)N1CCC[C@H]1C(=O)NCc1ccc(C(=N)N)cc1            8.12
2  CC(C)OC(=O)N[C@H](CC(C)(C)C)C(=O)N1CCC[C@H]1C(=O)NC[C@H]1CC[C@H](C(=N)N)CC1            7.82
3  CC(C)(C)C[C@@H](NC(=O)OC(C)(C)C)C(=O)N1CCC[C@H]1C(=O)NC[C@H]1CC[C@H](C(=N)N)CC1            7.77

(P) CC(C)OC(=O)N[C@@H](C(=O)N1CCC[C@H]1C(=O)NC[C@H]1CC[C@H](C(=N)N)CC1)C1CCCCC1
(Q) CS(=O)(=O)N[C@H](Cc1ccccc1)C(=O)N1CCC[C@H]1C(=O)NC[C@H]1CC[C@H](N)CC1
*Q* Higher pIC50: P or Q ? Please identify the chosen entry by its label.
*A* P
(P: 7.68, Q: 6.89)

###

Biological target: bovine thrombin (Bos taurus)
Construct: purchased Mochida Co., Ltd
Test: Antithrombin activity: coagulation inhibition of rat plasma
Format: biochemical
pIC50: −log10 of the molar value.
recorded.endpoint: pIC50

Reference set, count: 5
> print(dat)
                                item.smiles  recorded.endpoint  value.observed
1  N[C@H](Cc1ccccc1)C(=O)N1CCC[C@H]1C(=O)NC[C@H]1CC[C@H](N)CC1              pIC50            7.01
2  CC(C)OC(=O)N[C@H](CC(C)(C)C)C(=O)N1CCC[C@H]1C(=O)NC[C@H]1CC[C@H](C(=N)N)CC1              pIC50            7.28
3  CS(=O)(=O)N[C@H](Cc1ccccc1)C(=O)N1CCC[C@H]1C(=O)NCc1ccc(C(=N)N)cc1              pIC50            7.68
4  N=C(N)c1ccc(CNC(=O)[C@@H]2CCCN2C(=O)[C@@H](Cc2ccccc2)NC=O)cc1              pIC50            7.25
5  CS(=O)(=O)N[C@@H](C(=O)N1CCC[C@H]1C(=O)NC[C@H]1CC[C@H](N)CC1)C1CCCCC1              pIC50            7.23

(A) CCOC(=O)N[C@H](Cc1ccccc1)C(=O)N1CCC[C@H]1C(=O)NC[C@H]1CC[C@H](N)CC1
(B) CCOC(=O)N[C@H](CC(C)(C)C)C(=O)N1CCC[C@H]1C(=O)NC[C@H]1CC[C@H](N)CC1
*Q* Higher pIC50: A or B ? Please identify the chosen entry by its label.
*A* A
(A: 7.09, B: 6.89)
